The values you see were collected from the nanobody polyreactivity screen of Harvey et al. (2022).

Experimental Protocol: yeast display, Sf9 membrane polyspecificity reagent, FACS + sequencing; frameworks hold sequencing errors
Assay Endpoint: polyreactivity (PSR sort gate)

Worked cases, answers included:
{"columns": ["Ordered Residues", "polyreactivity (PSR sort gate)"],
 "data": [
  ["QVQLVESGGGLVQAGGSLRLSCAASGFTFVQYAMGWYRQAPGKERELVATISKSGGITYYADSVKGRFTISRDNAKNTVYLQMNSLKPEDTAVYYCAAAWYYSSRGFHATWGHDYWGQGTQVTVSS", "low polyreactivity"],
  ["QVQLVESGGGLVQAGGSLRLSCAASGFIFSIYTMGWYRQAPGKERELVAAISWSGGSTYYADSVKGRFTISRDNAKNTVYLQMNSLKPEDTAVYYCNRVQFSPVYRFREYDYWGQGSQVTVSS", "high polyreactivity"],
  ["QVQLVESGGGLVQAGGSLRLSCAASGRIFNEYAMGWYRQAPGKERELVAAITYSDDSTYYADSVKGRFTISRDNAKNTVYLQMNSLKPEDTAVYYCNADTPVWDGHAYPVDYWGQGTQVTVSS", "low polyreactivity"],
  ["QVQLVESGGGLVQAGGSLRLSCAASGSTLNVNAMGWYRQAPGKERELVAAITSGGSTYYADSVKGRFTISRDNAKNTVYLQMNSLKPEDTAVYYCNKRRSWRPTYPFGGSGFYYWGQGTQVTVSS", "low polyreactivity"]
]}

In the following, a different sequence is considered.
Input line: Fill blank: measured polyreactivity (PSR sort gate) of the sequence `QVQLVESGGGLVQAGGSLRLSCAASGRTFIRNAMGWYRQAPGKERELVASIRRSGGSTYYADSVKGRFTISRDNAKNTVYLQMNSLKPEDTAVYYSAAVHRFLLGYGYWGQGTQVTVSS` is ____.
Output line: high polyreactivity
